system: BaF3-tel-PDGFRβ (stably expressing PDGFRβ kinase)
Readings of GI50 for the listed molecules

# example entries with known answers
{"columns": ["molecule", "assaySystem", "result"],
 "data": [
  ["Cc1ccc(NC(=O)c2cccc(C(F)(F)F)n2)cc1-n1cc(-c2cnccc2OCC2CCCC2)cn1 [Compound 10]", "BaF3-tel-PDGFRβ (stably expressing PDGFRβ kinase)", "62 nM"],
  ["Cc1ccc(NC(=O)c2cc(C(F)(F)F)ccn2)cc1-n1cc(-c2cncc(N3CC4(COC4)C3)c2)nn1 [Compound 41]", "BaF3-tel-PDGFRβ (stably expressing PDGFRβ kinase)", "< 10 nM"],
  ["Cc1ccc(NC(=O)c2cccc(Cl)n2)cc1-n1cc(-c2cncc(N3CC4(COC4)C3)c2)cn1 [Compound 36]", "BaF3-tel-PDGFRβ (stably expressing PDGFRβ kinase)", "< 10 nM"],
  ["CN1CCN(c2cncc(-c3cn(-c4cc(NC(=O)c5cccc(C(F)(F)F)n5)ccc4F)nn3)c2)CC1 [Compound 24]", "BaF3-tel-PDGFRβ (stably expressing PDGFRβ kinase)", "< 10 nM"],
  ["Cc1ccc(NC(=O)c2cccc(Cl)n2)cc1-n1cc(-c2cncc(N3CCN(C)CC3)c2)nn1 [Compound 22]", "BaF3-tel-PDGFRβ (stably expressing PDGFRβ kinase)", "< 10 nM"],
  ["Cc1ccc(NC(=O)c2cccc(C(F)(F)F)n2)cc1-n1cc(-c2cncc(N3CC4(COC4)C3)c2)nn1 [Compound 38]", "BaF3-tel-PDGFRβ (stably expressing PDGFRβ kinase)", "< 10 nM"]
]}

Data request: Quick one: GI50 of Cc1ccc(NC(=O)c2cncc(C(F)(F)F)c2)cc1-n1cc(-c2cncc(N3CCN(C)CC3)c2)cn1 [Compound 16] ?
Data returned: < 1.5 nM

Data request: Can you handle Cc1ccc(NC(=O)c2ccnc(C(F)(F)F)c2)cc1-n1cc(-c2cncc(N3CCOCC3)c2)cn1 [Compound 12] next?
Data returned: 1 nM

Data request: # repeat for Cc1ccc(NC(=O)c2cncc(C(F)(F)F)c2)cc1-n1cc(-c2cncc(N3CC4(COC4)C3)c2)nn1 [Compound 40]
Data returned: < 10 nM

Data request: Would you mind doing Cc1ccc(NC(=O)c2cccc(C(F)(F)F)n2)cc1-n1cc(-c2cncc(N3CC4(COC4)C3)c2)cn1 [Compound 32] as well?
Data returned: < 10 nM

Data request: Cc1ccc(NC(=O)c2ccnc(C(F)(F)F)c2)cc1-n1cc(-c2cnccc2OCC2CCCO2)cn1 (centres unmarked) [Compound 9] ?
Data returned: < 0.3 nM

Data request: Ok, now Cc1ccc(NC(=O)c2cc(C(F)(F)F)ccn2)cc1-n1cc(-c2cncc(N3CC4(COC4)C3)c2)cn1 [Compound 35]
Data returned: < 10 nM

Data request: Queued: Cc1ccc(NC(=O)c2ccnc(C(F)(F)F)c2)cc1-n1cc(-c2cnccc2OCC2CCCC2)cn1 [Compound 11]
Data returned: 1.1 nM

Data request: Repeat with Cc1ccc(NC(=O)c2cccc(C(F)(F)F)n2)cc1-n1cc(-c2cnccc2OCCN2CCOCC2)cn1 [Compound 4]
Data returned: 3.2 nM

---

# BaF3-tel-PDGFRβ (stably expressing PDGFRβ kinase): GI50 values follow
Form entry: value (nM) — number only.

{"columns": ["compound", "units", "GI50"],
 "data": [
  ["Cc1ccc(NC(=O)c2ccnc(C(F)(F)F)c2)cc1-n1cc(-c2cnccc2OCC2CCOCC2)cn1 [Compound 3]", "nM", 1.4],
  ["Cc1ccc(NC(=O)c2cccc(C(F)(F)F)n2)cc1-n1cc(-c2cncc(N3CCN(C)CC3)c2)cn1 [Compound 1]", "nM", 430]
]}

Next compound, please.
Data request: What GI50 value was documented for this compound, Cc1ccc(NC(=O)c2cccc(C(F)(F)F)n2)cc1-n1cc(-c2cnccc2OC2COC2)cn1 [Compound 6] ?
Data returned: 1
